These entries and their values trace back to PubChem BioAssay (NCI).

Test system: HOP-62 NSCLC
Assay: NCI-60 one-dose screen, 48 h (100 = growth as untreated, 0 = no growth, -100 = all killed)
Details: 10 µM unless noted
The panel holds about 83,000 compounds, 20% with a hit somewhere; the sample as a whole holds those more often. Calls of active or inactive are those of the source. How the source made its calls: active means growth percent below 10; inactive means the rest.
Below is a list of entries, each paired with its recorded growth value.

As a guide, the following entries are already answered.
compound	growth
c1csc([C@@H]2C[C@@H]3Cc4ccc5ccccc5c4N2O3)c1	112% (inactive)
Fc1ccc(-c2nc(Nc3ccc(-c4nc5ccccc5[nH]4)cc3)nc(N3CCOCC3)n2)cc1	-73.9% (active)

Report the value of growth obtained on HOP-62 NSCLC for "Cc1cc(NC(=O)Nc2cccc3ccccc23)no1" .
103% (inactive)

Report the value of growth obtained on HOP-62 NSCLC for CCOC(=O)C(Cc1ccccc1)(C(=O)OCC)C(Br)C(=O)c1ccccc1 (configuration not stated) .
95.6% (inactive)

Report the value of growth obtained on HOP-62 NSCLC for "N#Cc1c(N)[nH]c(S)c1C#N" .
100% (inactive)

Report the value of growth obtained on HOP-62 NSCLC for "O=[N+]([O-])c1ccc(N/N=C/c2c(O)ccc3ccccc23)nc1" .
45.6% (inactive)

Report the value of growth obtained on HOP-62 NSCLC for "Cc1ccc(NC(=O)COC(=O)c2ccc(S(=O)(=O)N3CCCCCC3)cc2)cc1" .
96.4% (inactive)

Report the value of growth obtained on HOP-62 NSCLC for "NC(=O)c1ncn([C@@H]2O[C@H](CO)[C@@H](O)[C@H]2O)n1" .
97.2% (inactive)

Report the value of growth obtained on HOP-62 NSCLC for "COc1ccc2c(c1)C(=O)/C(=C/c1cccc(OCC(=O)c3ccccc3)c1)CC2" .
101% (inactive)

* * *

Below is a list of entries, each paired with its recorded growth value.
Test system: NCI-H322M lung
Assay: NCI-60 one-dose screen, 48 h (100 = growth as untreated, 0 = no growth, -100 = all killed)
Conditions: 10 µM unless noted
Protocol: Growth inhibition of the NCI-H322M human Non-Small Cell Lung tumor cell line is measured as a screen for anti-cancer activity. Cells are grown in 96 well plates and exposed to the test compound for 48 hours. Compounds are tested at a single concentration, which is 10^-5 M for most compounds. The reported endpoint is percent growth (GI% or GIPRCNT), where numbers from 0 - 100% represent growth inhibition, and numbers from -100% - 0 represent cell death. […]
This is part of a sample that, as a whole, favours compounds with a hit. Of some 83,000 tested, about 20% had one in any assay.
Report the figure in % without appending any unit label.

compound	growth, %
COc1ccc(C(=O)COc2cccc(/C=C3\Oc4ccc5ccccc5c4C3=O)c2)cc1	106

Specify measured growth for O=c1[nH]c(=O)n(C2CC(O)C(CO)O2)cc1C(F)(F)F (stereo unspecified) .
76

Specify measured growth for COc1cc2c(C#N)n3c(c2cc1OC)C(=O)C(c1ccccc1)Oc1ccccc1-3 (stereo unspecified) .
85.5

Specify measured growth for "O=C(Nc1cccc(C(F)(F)F)c1)Nc1ccc(OCc2nnc(-c3ccc(Cl)cc3)o2)c(F)c1" .
86.5

Specify measured growth for CCC(C)CC(C)C(=O)c1c(O)ccn(O)c1=O (stereo unspecified) .
52.5

Specify measured growth for "CC(=O)NC1(C(=O)O)CCCC1" .
130

* * *

System: UACC-257 melanoma
Assay: NCI-60 one-dose screen, 48 h (100 = growth as untreated, 0 = no growth, -100 = all killed)
Conditions: 10 µM unless noted
This is part of a sample that, as a whole, favours compounds with a hit. Of some 83,000 tested, about 20% had one in any assay.
measured property: growth (%)
Report the figure in % without appending any unit label.

As a guide, the following entries are already answered.
compound	uom	measured
NC(=Nc1ccccc1)SCCCCSC(N)=Nc1ccccc1	%	101
Cc1nn(-c2ccc(Cl)cc2)c2nc3c(nc12)c(=O)oc1ccccc13	%	104
COc1cc(/C=C2\CCC/C(=C\c3ccc(OCC4CO4)c(OC)c3)C2=O)ccc1OCC1CO1 (centres undefined)	%	35.1
COc1cc(OC)c2cc(C(=O)O)c(=O)oc2c1	%	76
CO[C@H]1/C=C/O[C@@]2(C)Oc3c(C)c(O)c4c(O)c(c(/C=N/N5C(C)CN(Cc6ccccc6)CC5C)c(O)c4c3C2=O)NC(=O)/C(C)=C\C=C\[C@H](C)[C@H](O)[C@@H](C)[C@@H](O)[C@@H](C)[C@H](OC(C)=O)[C@@H]1C (some centres undefined)	%	117

Report the value of growth obtained on UACC-257 melanoma for "CN=C(NC)N/N=C(C)\C=N\NC(=NC)NC" .
100

Report the value of growth obtained on UACC-257 melanoma for CCCCCCCC1(C)NC(=O)NC1=O (centres undefined) .
114

Report the value of growth obtained on UACC-257 melanoma for "Oc1[nH]c2ccc(Cl)cc2c1/C=c1/ccc2c(c1)N=C(c1ccc(C(F)(F)F)cc1)N=2" .
66

Report the value of growth obtained on UACC-257 melanoma for "O=C1N(C2CCCCC2)C(=O)N1C1CCCCC1" .
22.8

* * *

Tested on: UACC-257 melanoma
Test: NCI-60 one-dose screen, 48 h
Settings: 10 µM unless noted
Compounds without any hit were thinned out: in the full panel of roughly 83,000, 20% have a hit. The source made the active and inactive calls. How the source made its calls: active means growth percent below 10; inactive means the rest.
Classes to choose from: label 1 (active), label 0 (inactive)

Example entries begin here.
molecule	cat
Cc1ccc(C(=O)Nc2ccc(Cl)cc2C(=O)NCc2ccccc2)cc1	label 0
NCCCc1nnc(CCC(=O)c2nc3ccccc3[nH]2)o1	label 0

Check the results log: what was the call for "CN(C)c1ccc(/C=C\c2ccnc3ccccc23)cc1" ?
label 0

Check the results log: what was the call for "CCOC(=O)c1cc(-c2cccnc2)nc2c(Cl)cc(Cl)cc12" ?
label 0

Check the results log: what was the call for C[N+]1(CCc2ccccc2)CCC(CCC2CC[N+](C)(CCc3ccccc3)CC2)CC1 (configuration not stated) ?
label 0

Check the results log: what was the call for COc1ccc(C(=O)C(C)Br)cc1OC (configuration not stated) ?
label 0

Check the results log: what was the call for "O=C(c1nn(-c2ccc(Cl)cc2)cc1O)n1nc(C(F)(F)F)cc1-c1ccccc1" ?
label 0

Check the results log: what was the call for "CCOc1ccccc1C(=O)OCC(=O)Nc1cccc(S(=O)(=O)N(C)C)c1" ?
label 0

Check the results log: what was the call for COc1ccc(-c2nn(-c3cccc(Cl)c3)cc2C2CC(c3ccccc3)=NN2C(C)=O)cc1 (configuration not stated) ?
label 0

Check the results log: what was the call for "C[n+]1ccc(C#N)c2ccccc21" ?
label 0

Check the results log: what was the call for "COC(=O)CCC1=C(C)/C(=C/c2[nH]c(-c3ccc[nH]3)cc2OC)N=C1C" ?
label 1

Check the results log: what was the call for "O=C1CC(=O)N(c2ccccc2)O1" ?
label 0

Check the results log: what was the call for CC(=O)Oc1c(C)c(OC(C)=O)c2c(c1C(C)=O)OC1CC(=O)C(C(C)=O)=C(O)C21C (configuration not stated) ?
label 0

Check the results log: what was the call for "O=C(/C(=C/c1cccc([N+](=O)[O-])c1)c1ccccc1)c1ccccc1" ?
label 0

Check the results log: what was the call for CCN(CC)c1ccc(C(O)C2=CC(=O)c3ccccc3C2=O)cc1 (configuration not stated) ?
label 1

Check the results log: what was the call for "COc1cccc2c1O/C(=C\c1c([N+](=O)[O-])ncn1C)C2=O" ?
label 0

Check the results log: what was the call for "CN1CCN(Cc2ccc(NC(=O)c3[nH]ncc3Nc3ccnc4ccnn34)cc2)CC1" ?
label 0

Check the results log: what was the call for CC(CCC(=O)O)(NC(=O)c1ccc([N+](=O)[O-])cc1)C(=O)O (configuration not stated) ?
label 0

Check the results log: what was the call for COc1cccc(C2C(C#N)=C(N)Oc3cc(OC)ccc32)c1 (configuration not stated) ?
label 0

Check the results log: what was the call for COc1cc(C2C=C(c3ccc(C)cc3)Nc3nc(SC)[nH]c(=O)c32)ccc1Oc1ccnc2cc(Cl)ccc12 (configuration not stated) ?
label 0

Check the results log: what was the call for "CCCCn1c(Cc2ccc(Cl)cc2)nc2cc(OC)c(OC)cc2c1=O" ?
label 0

Check the results log: what was the call for "Cc1cc(NC(=O)Nc2cccc3ccccc23)no1" ?
label 0

* * *

Below is a list of entries, each paired with its recorded growth value.
System: HOP-62 NSCLC
Assay: NCI-60 one-dose screen, 48 h (100 = growth as untreated, 0 = no growth, -100 = all killed)
Conditions: 10 µM unless noted
About 83,000 compounds went through this panel and 20% of them were active in at least one assay; those are over-represented in the sample as a whole.
Report the figure in % without appending any unit label.

Specify measured growth for "O=C(OCCBr)c1ccc(Cl)c([N+](=O)[O-])c1" .
131
